Assay: Chemical stability test (HPLC purity)
Conditions: HPLC, 1 month at 40±2° C., 75±5% relative humidity, air-tight vessel

| compound | 1 month Other peaks (%) |
| --- | --- |
| CO[C@@H]1[C@H](OC(=O)/C=C/c2ccc(OCCOCCOCCO)cc2)CC[C@]2(CO2)[C@H]1[C@@]1(C)O[C@@H]1CC=C(C)C | 1.6 |
| CO[C@@H]1[C@H](OC(=O)/C=C/c2ccc(OCCO)cc2)CC[C@]2(CO2)[C@H]1[C@@]1(C)O[C@@H]1CC=C(C)C | 0.6 |
| CO[C@@H]1[C@H](OC(=O)NC(=O)CCl)CC[C@]2(CO2)[C@H]1[C@@]1(C)O[C@@H]1CC=C(C)C [TNP-470, O-chloroacetylcarbamoylfumagillol, reference compound] | 3.5 |
| CO[C@@H]1[C@H](OC(=O)/C=C/c2ccc(OCCOCCO)cc2)CC[C@]2(CO2)[C@H]1[C@@]1(C)O[C@@H]1CC=C(C)C | 0.6 |
| CO[C@@H]1[C@H](OC(=O)/C=C/c2ccc(OCCCCO)cc2)CC[C@]2(CO2)[C@H]1[C@@]1(C)O[C@@H]1CC=C(C)C | 1.1 |
| CO[C@@H]1[C@H](OC(=O)/C=C/c2ccc(Cl)c(NCCO)c2)CC[C@]2(CO2)[C@H]1[C@@]1(C)O[C@@H]1CC=C(C)C | 1.1 |
| COc1cc(/C=C/C(=O)O[C@@H]2CC[C@]3(CO3)[C@@H]([C@@]3(C)O[C@@H]3CC=C(C)C)[C@@H]2OC)cc(OC)c1OCCO | 0.9 |

----------
Experiment: Solubility test
Type: physicochemical
Details: ethanol, ordinary temperature
Each entry gets False if its The amount of solvent to dissolve 1 g of the compounds (ml), ethanol stays under 60 mL, and True if its The amount of solvent to dissolve 1 g of the compounds (ml), ethanol is 60 mL or above.

| molecule | label-class |
| --- | --- |
| COc1cc(C=CC(=O)OC2CCC3(CO3)C(C3(C)OC3CC=C(C)C)C2OC)cc(OC)c1OC (stereo not shown) [CKD-731, O-(3,4,5-trimethoxycinnamoyl)fumagillol, reference compound] | True |
| CO[C@@H]1[C@H](OC(=O)/C=C/c2ccc(OCCCCO)cc2)CC[C@]2(CO2)[C@H]1[C@@]1(C)O[C@@H]1CC=C(C)C | True |
| CO[C@@H]1[C@H](OC(=O)/C=C/c2ccc(OCCOCCOCCO)cc2)CC[C@]2(CO2)[C@H]1[C@@]1(C)O[C@@H]1CC=C(C)C | False |
| COc1ccc(/C=C/C(=O)O[C@@H]2CC[C@]3(CO3)[C@@H]([C@@]3(C)O[C@@H]3CC=C(C)C)[C@@H]2OC)cc1OCCO | True |
| CO[C@@H]1[C@H](OC(=O)/C=C/c2cccc(NCCO)c2)CC[C@]2(CO2)[C@H]1[C@@]1(C)O[C@@H]1CC=C(C)C | False |
| CO[C@@H]1[C@H](OC(=O)C=Cc2ccc(OCCN(C)C)cc2)CC[C@]2(CO2)[C@H]1[C@@]1(C)O[C@@H]1CC=C(C)C [CKD-732, reference compound] | True |
| CO[C@@H]1[C@H](OC(=O)/C=C/c2ccc(Cl)c(NCCO)c2)CC[C@]2(CO2)[C@H]1[C@@]1(C)O[C@@H]1CC=C(C)C | True |
| CO[C@@H]1[C@H](OC(=O)/C=C/c2ccc(OCCO)cc2)CC[C@]2(CO2)[C@H]1[C@@]1(C)O[C@@H]1CC=C(C)C | False |
| CO[C@@H]1[C@H](OC(=O)NC(=O)CCl)CC[C@]2(CO2)[C@H]1[C@@]1(C)O[C@@H]1CC=C(C)C [TNP-470, O-chloroacetylcarbamoylfumagillol, reference compound] | True |
| CO[C@@H]1[C@H](OC(=O)/C=C/c2ccc(OCCOCCO)cc2)CC[C@]2(CO2)[C@H]1[C@@]1(C)O[C@@H]1CC=C(C)C | False |

----------
Assay: Chemical stability test (HPLC purity)
Conditions: HPLC, initial

| molecule | Initial Parent peak (%) |
| --- | --- |
| CO[C@@H]1[C@H](OC(=O)/C=C/c2ccc(OCCO)cc2)CC[C@]2(CO2)[C@H]1[C@@]1(C)O[C@@H]1CC=C(C)C [Example 1] | 99.4 |
| CO[C@@H]1[C@H](OC(=O)/C=C/c2ccc(OCCCCO)cc2)CC[C@]2(CO2)[C@H]1[C@@]1(C)O[C@@H]1CC=C(C)C [Example 21] | 99.0 |
| CO[C@@H]1[C@H](OC(=O)/C=C/c2ccc(OCCOCCOCCO)cc2)CC[C@]2(CO2)[C@H]1[C@@]1(C)O[C@@H]1CC=C(C)C [Example 27] | 98.4 |

----------
System: CPAE (calf pulmonary artery endothelial cell)
Test: Inhibiting activity on cell proliferation, SRB analysis (CPAE)
Type: cell-based
Conditions: Bos taurus, Endothelial cell, 72 h; CPAE cells, 3 days with drug, SRB; read-out: IC50 (nM) CAPE
Listed here: items and their measured IC50.
recorded-endpoint: IC50 (nM)

| molecule | reading-unit | reading |
| --- | --- | --- |
| CO[C@@H]1[C@H](OC(=O)/C=C/c2ccc(NCCOCCO)cc2)CC[C@]2(CO2)[C@H]1[C@@]1(C)O[C@@H]1CC=C(C)C [Example 16] | nM | 0.041 |
| COc1cc(/C=C/C(=O)O[C@@H]2CC[C@]3(CO3)[C@@H]([C@@]3(C)O[C@@H]3CC=C(C)C)[C@@H]2OC)cc(OC)c1Oc1ccc(CO)cc1 [Example 9] | nM | 0.811 |
| CO[C@@H]1[C@H](OC(=O)/C=C/c2ccc(OCCOCCOCCO)cc2)CC[C@]2(CO2)[C@H]1[C@@]1(C)O[C@@H]1CC=C(C)C [Example 27] | nM | 0.089 |
| COc1cc(/C=C/C(=O)O[C@@H]2CC[C@]3(CO3)[C@@H]([C@@]3(C)O[C@@H]3CC=C(C)C)[C@@H]2OC)cc(OC)c1OCCOCCO [Example 13] | nM | 0.17 |
| COc1cc(/C=C/C(=O)O[C@@H]2CC[C@]3(CO3)[C@@H]([C@@]3(C)O[C@@H]3CC=C(C)C)[C@@H]2OC)ccc1OCCOCCO [Example 14] | nM | 0.26 |

----------
Listed here: items and their measured 1 month Other peaks (%).
Experiment: Chemical stability test (HPLC purity)
Conditions: HPLC, 1 month at 40±2° C., 75±5% relative humidity, air-tight vessel

| molecular-string | 1 month Other peaks (%) |
| --- | --- |
| CO[C@@H]1[C@H](OC(=O)/C=C/c2ccc(NCCO)cc2)CC[C@]2(CO2)[C@H]1[C@@]1(C)O[C@@H]1CC=C(C)C | 1.5 |
| CO[C@@H]1[C@H](OC(=O)/C=C/c2cccc(NCCO)c2)CC[C@]2(CO2)[C@H]1[C@@]1(C)O[C@@H]1CC=C(C)C | 1.9 |
| COc1cc(/C=C/C(=O)O[C@@H]2CC[C@]3(CO3)[C@@H]([C@@]3(C)O[C@@H]3CC=C(C)C)[C@@H]2OC)ccc1OCCO | 1.6 |

----------
Experiment: Chemical stability test (HPLC purity)
Conditions: HPLC, 1 month at 40±2° C., 75±5% relative humidity, air-tight vessel

| molecule | 1 month Parent peak (%) |
| --- | --- |
| CO[C@@H]1[C@H](OC(=O)/C=C/c2ccc(OCCO)cc2)CC[C@]2(CO2)[C@H]1[C@@]1(C)O[C@@H]1CC=C(C)C [Example 1] | 99.4 |
| CO[C@@H]1[C@H](OC(=O)/C=C/c2ccc(Cl)c(NCCO)c2)CC[C@]2(CO2)[C@H]1[C@@]1(C)O[C@@H]1CC=C(C)C [Example 7] | 98.9 |
| COc1cc(/C=C/C(=O)O[C@@H]2CC[C@]3(CO3)[C@@H]([C@@]3(C)O[C@@H]3CC=C(C)C)[C@@H]2OC)ccc1OCCO [Example 3] | 98.4 |
| CO[C@@H]1[C@H](OC(=O)/C=C/c2ccc(OCCCCO)cc2)CC[C@]2(CO2)[C@H]1[C@@]1(C)O[C@@H]1CC=C(C)C [Example 21] | 98.9 |
| COc1cc(C=CC(=O)OC2CCC3(CO3)C(C3(C)OC3CC=C(C)C)C2OC)cc(OC)c1OC (stereo not shown) [CKD-731, O-(3,4,5-trimethoxycinnamoyl)fumagillol, reference compound] | 97.1 |
| COc1ccc(/C=C/C(=O)O[C@@H]2CC[C@]3(CO3)[C@@H]([C@@]3(C)O[C@@H]3CC=C(C)C)[C@@H]2OC)cc1OCCO [Example 4] | 98.5 |
| COc1cc(/C=C/C(=O)O[C@@H]2CC[C@]3(CO3)[C@@H]([C@@]3(C)O[C@@H]3CC=C(C)C)[C@@H]2OC)cc(OC)c1OCCO [Example 2] | 99.1 |
| CO[C@@H]1[C@H](OC(=O)C=Cc2ccc(OCCN(C)C)cc2)CC[C@]2(CO2)[C@H]1[C@@]1(C)O[C@@H]1CC=C(C)C [CKD-732, reference compound] | 95.4 |
| CO[C@@H]1[C@H](OC(=O)/C=C/c2ccc(NCCO)cc2)CC[C@]2(CO2)[C@H]1[C@@]1(C)O[C@@H]1CC=C(C)C [Example 5] | 98.5 |
| CO[C@@H]1[C@H](OC(=O)/C=C/c2cccc(NCCO)c2)CC[C@]2(CO2)[C@H]1[C@@]1(C)O[C@@H]1CC=C(C)C [Example 6] | 98.1 |
| CO[C@@H]1[C@H](OC(=O)/C=C/c2ccc(OCCOCCO)cc2)CC[C@]2(CO2)[C@H]1[C@@]1(C)O[C@@H]1CC=C(C)C [Example 12] | 99.4 |
| CO[C@@H]1[C@H](OC(=O)/C=C/c2ccc(OCCOCCOCCO)cc2)CC[C@]2(CO2)[C@H]1[C@@]1(C)O[C@@H]1CC=C(C)C [Example 27] | 98.4 |
| CO[C@@H]1[C@H](OC(=O)NC(=O)CCl)CC[C@]2(CO2)[C@H]1[C@@]1(C)O[C@@H]1CC=C(C)C [TNP-470, O-chloroacetylcarbamoylfumagillol, reference compound] | 96.5 |
